Target: T1, Anti-CD28 Fab (SEQ ID NOs: 696, 697)
T1 construct: Biotinylated and captured on neutravidin coated plates in the phage ELISA
T1 sequence (VH, as listed by the source, chain 1 of 2): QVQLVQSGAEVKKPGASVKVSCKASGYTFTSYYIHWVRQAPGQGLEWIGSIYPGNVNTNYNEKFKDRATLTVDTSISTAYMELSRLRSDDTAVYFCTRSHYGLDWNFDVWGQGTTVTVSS
T1 sequence (VL, as listed by the source, chain 2 of 2): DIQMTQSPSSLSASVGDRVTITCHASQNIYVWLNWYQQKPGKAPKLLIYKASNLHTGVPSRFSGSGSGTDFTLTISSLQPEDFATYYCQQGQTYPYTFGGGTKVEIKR
Test: phage ELISA; biotinylated anti-CD28 Fab on neutravidin plate, clonal phage supernatant, anti-M13 HRP
Attribute measured: Phage binding ELISA, Anti-CD28 Fab signal
Reply briefly: the number, and no unit.

Binder: YCDGHAQEYMDKCL [Phage-950]
Reported value: 1.62

Binder: YCDGHELKYMLKCL [Phage-952]
Reported value: 1.62

Binder: YCAGHLAIYMSKCL [Phage-947]
Reported value: 1.63

Binder: YCDGHSLEYIGKCL [Phage-944]
Reported value: 1.63

Binder: YCDGHSEAFMQKCL [Phage-945]
Reported value: 1.63

Prompt: Requested field: Phage binding ELISA, Anti-CD28 Fab signal. Item: YCDGHLSEYMSKCL [Phage-948]
Completion: 1.62

Prompt: Requested field: Phage binding ELISA, Anti-CD28 Fab signal. Item: YCDGHSPEYMLKCL [Phage-955]
Completion: 1.61

Prompt: Requested field: Phage binding ELISA, Anti-CD28 Fab signal. Item: YCAGHLPEYMGKCL [Phage-946]
Completion: 1.63

Prompt: Requested field: Phage binding ELISA, Anti-CD28 Fab signal. Item: YCAGHSPQYMEKCL [Phage-956]
Completion: 1.61
